- Test system: HCC-1143 cells
- ASSAY: Cell viability, CellTiter-Glo, HCC-1143
- Assay type: cell-based
- CONDITION_CONTEXT: Homo sapiens, HCC1143, 72 h; Table 2; cancer cell viability, 3 d treatment; read-out: HCC-1143 IC50
QUANTITY_KIND: IC50

| COMPOUND | MEASURED |
| --- | --- |
| CC1CCN(c2ccc(NC(=O)c3ccc([N+](=O)[O-])o3)cc2)CC1 [Compound 3d] | 2.1 µM |

---

- Test system: HCC-38 cells
- ASSAY: Cell viability, CellTiter-Glo, HCC-38
- Type: cell-based
- CONDITION_CONTEXT: Homo sapiens, HCC38; 0.125 μM to 20 μM, CellTiter-Glo; read-out: IC50 cell viability HCC-38
pIC50: −log10 of the molar value.

| MOLECULE | pIC50 |
| --- | --- |
| O=C(Nc1ccc(I)cc1)c1ccc([N+](=O)[O-])o1 [Compound 1] | 5.06 |
